Cited source: ChEMBL document CHEMBL1681642

Quick reference for inhibition among some molecules
Molecular target: Macrophage migration inhibitory factor (Homo sapiens) (UniProt P14174)
Sequence (whole entry): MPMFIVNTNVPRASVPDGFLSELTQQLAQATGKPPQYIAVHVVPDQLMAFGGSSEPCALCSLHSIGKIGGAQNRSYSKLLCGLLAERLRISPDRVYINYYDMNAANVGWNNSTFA
Experiment: Inhibition of MIF in human PBMC assessed as MIF secretion at 100 uM after 5 hrs by ELISA
Supply the numeric figure in %, leaving out any unit text.

Use the examples below as a reference point.
# molecule, endpoint_value
records = [
    ("O=C1c2ccccc2C(=O)N1C1CC(c2cn(-c3cccc(C(F)(F)F)c3)c3ccccc23)=NO1 (stereo not drawn)", 0),
    ("FC(F)(F)c1cccc(-n2cc(C3=NOC(C4CCCCC4)C3)c3ccccc32)c1 (stereo not drawn)", 22),
]

Task: Quick one: give measured inhibition for FC(F)(F)c1cccc(-n2cc(C3=NOC(Cn4ccc5ccccc54)C3)c3ccccc32)c1 (stereo not drawn)
Result: 8

Task: Quick one: give measured inhibition for O=C1CCCN1C1CC(c2ccoc2)=NO1 (stereo not drawn)
Result: 36

Task: Quick one: give measured inhibition for COc1ccc(C2CC(c3ccoc3)=NO2)cc1 (stereo not drawn)
Result: 82

Task: Quick one: give measured inhibition for COC(=O)C1(C)CC(c2cn(-c3cccc(C(F)(F)F)c3)c3ccccc23)=NO1 (stereo not drawn)
Result: 0

Task: Quick one: give measured inhibition for COC(=O)C1(C)CC(c2ccoc2)=NO1 (stereo not drawn)
Result: 0

Task: Quick one: give measured inhibition for Fc1ccc(C2CC(c3cn(-c4cccc(C(F)(F)F)c4)c4ccccc34)=NO2)cc1 (stereo not drawn)
Result: 0

Task: Quick one: give measured inhibition for c1cc(C2=NOC(C3CCCCC3)C2)co1 (stereo not drawn)
Result: 35

Task: Quick one: give measured inhibition for FC(F)(F)c1ccc(C2CC(c3ccoc3)=NO2)cc1 (stereo not drawn)
Result: 60

Task: Quick one: give measured inhibition for CC1(C(=O)O)CC(c2cn(-c3cccc(C(F)(F)F)c3)c3ccccc23)=NO1 (stereo not drawn)
Result: 14

Task: Quick one: give measured inhibition for COC(=O)CC1CC(c2ccc(O)cc2)=NO1 (stereo not drawn)
Result: 87

Task: Quick one: give measured inhibition for CC(C)(C)C(=O)OC1CC(c2ccoc2)=NO1 (stereo not drawn)
Result: 86

Task: Quick one: give measured inhibition for Fc1ccc(C2CC(c3ccoc3)=NO2)cc1 (stereo not drawn)
Result: 51

Task: Quick one: give measured inhibition for O=C1CCCN1C1CC(c2cn(-c3cccc(C(F)(F)F)c3)c3ccccc23)=NO1 (stereo not drawn)
Result: 0

Task: Quick one: give measured inhibition for CC1(C(=O)O)CC(c2ccoc2)=NO1 (stereo not drawn)
Result: 21

Task: Quick one: give measured inhibition for OCCC1CC(c2cn(-c3cccc(C(F)(F)F)c3)c3ccccc23)=NO1 (stereo not drawn)
Result: 0

Task: Quick one: give measured inhibition for OCCC1CC(c2ccoc2)=NO1 (stereo not drawn)
Result: 58

---

Quick reference for inhibition at 30 µM among some compounds
System: PBMC
Test: Antiinflammatory activity in human PBMC assessed as inhibition of MIF-induced IL-6 production at 30 uM after 21 hrs by ELISA
Assay type: functional
Supply the numeric figure in %, leaving out any unit text.

Use the examples below as a reference point.
# compound, inhibition at 30 µM (%)
records = [
    ("c1ccc2c(c1)ccn2CC1CC(c2ccoc2)=NO1 (stereo unspecified)", 0),
    ("FC(F)(F)c1ccc(C2CC(c3cn(-c4cccc(C(F)(F)F)c4)c4ccccc34)=NO2)cc1 (stereo unspecified)", 3),
    ("CC1(C(=O)O)CC(c2ccoc2)=NO1 (stereo unspecified)", 14),
    ("Fc1ccc(C2CC(c3cn(-c4cccc(C(F)(F)F)c4)c4ccccc34)=NO2)cc1 (stereo unspecified)", 0),
    ("FC(F)(F)c1cccc(-n2cc(C3=NOC(Cn4ccc5ccccc54)C3)c3ccccc32)c1 (stereo unspecified)", 15),
]

Could you now look at the following compound, please?
Task: Quick one: give measured inhibition at 30 µM for c1cc(C2=NOC(C3CCCCC3)C2)co1 (stereo unspecified)
Result: 0

---

Test: Cytotoxicity against human PBMC assessed as cell viability measured during MIF secretion assay at 100 uM after 21 hrs by MTS assay
Type: cell-based
Settings: PBMC (peripheral blood mononuclear cells)
Outcome: 1.0 for cytotoxicity at 21 h, 100 µM of at least 2%; 0.0 for anything lower.

# compound, discrete_label
rows = [
    ("FC(F)(F)c1cccc(-n2cc(C3=NOC(C4CCCCC4)C3)c3ccccc32)c1 (stereo unspecified)", 1.0),
    ("FC(F)(F)c1ccc(C2CC(c3ccoc3)=NO2)cc1 (stereo unspecified)", 1.0),
]

Task: Item O=C1c2ccccc2C(=O)N1C1CC(c2cn(-c3cccc(C(F)(F)F)c3)c3ccccc23)=NO1 (stereo unspecified) with cytotoxicity at 21 h, 100 µM of 2% or above?
Result: 0.0

Task: Item COC(=O)CC1CC(c2ccc(O)cc2)=NO1 (stereo unspecified) with cytotoxicity at 21 h, 100 µM of 2% or above?
Result: 1.0

---

Quick reference for cytotoxicity at 21 h, 100 µM among some compounds
Test: Cytotoxicity against human PBMC assessed as cell viability measured during cytokines production assay at 100 uM after 21 hrs by MTS assay
Format: cell-based
Conditions: PBMC (peripheral blood mononuclear cells)
Quick note: number first, unit second.

Use the examples below as a reference point.
# compound, cytotoxicity at 21 h, 100 µM
measured = [
    ("FC(F)(F)c1cccc(-n2cc(C3=NOC(C4CCCCC4)C3)c3ccccc32)c1 (stereo unspecified)", "7%"),
    ("COc1ccc(C2CC(c3ccoc3)=NO2)cc1 (stereo unspecified)", "12%"),
    ("CC1(C(=O)O)CC(c2cn(-c3cccc(C(F)(F)F)c3)c3ccccc23)=NO1 (stereo unspecified)", "14%"),
    ("COC(=O)C1(C)CC(c2cn(-c3cccc(C(F)(F)F)c3)c3ccccc23)=NO1 (stereo unspecified)", "2%"),
]

Task: Quick one: give measured cytotoxicity at 21 h, 100 µM for CC(C)(C)C(=O)OC1CC(c2ccoc2)=NO1 (stereo unspecified)
Result: 8%

Task: Quick one: give measured cytotoxicity at 21 h, 100 µM for FC(F)(F)c1cccc(-n2cc(C3=NOC(c4ccccc4)C3)c3ccccc32)c1 (stereo unspecified)
Result: 8%

Task: Quick one: give measured cytotoxicity at 21 h, 100 µM for COC(=O)CC1(C(=O)OC)CC(c2cn(-c3cccc(C(F)(F)F)c3)c3ccccc23)=NO1 (stereo unspecified)
Result: 2%

Task: Quick one: give measured cytotoxicity at 21 h, 100 µM for FC(F)(F)c1ccc(C2CC(c3ccoc3)=NO2)cc1 (stereo unspecified)
Result: 17%

Task: Quick one: give measured cytotoxicity at 21 h, 100 µM for FC(F)(F)c1cccc(-n2cc(C3=NOC(Cn4ccc5ccccc54)C3)c3ccccc32)c1 (stereo unspecified)
Result: 16%

Task: Quick one: give measured cytotoxicity at 21 h, 100 µM for O=C1c2ccccc2C(=O)N1C1CC(c2ccoc2)=NO1 (stereo unspecified)
Result: 12%

Task: Quick one: give measured cytotoxicity at 21 h, 100 µM for c1cc(C2=NOC(CN3CCOCC3)C2)co1 (stereo unspecified)
Result: 6%

---

Target: Macrophage migration inhibitory factor (Homo sapiens) (UniProt P14174)
Assay: Inhibition of human purified MIF tautomerase activity at 10 uM after 30 mins
// bucketize inhibition: LOW = under 8%, MEDIUM = from 8% up to 20%, HIGH = 20% and over

Reference set (3 entries):
# compound, discrete_label
data = [
    ("FC(F)(F)c1cccc(-n2cc(C3=NOC(c4ccccc4)C3)c3ccccc32)c1 (stereo not drawn)", "LOW"),
    ("O=C1CCCN1C1CC(c2ccoc2)=NO1 (stereo not drawn)", "LOW"),
    ("CC1(C(=O)O)CC(c2ccoc2)=NO1 (stereo not drawn)", "MEDIUM"),
]

Task: Band of COC(=O)CC1(C(=O)OC)CC(c2cn(-c3cccc(C(F)(F)F)c3)c3ccccc23)=NO1 (stereo not drawn) ?
Result: LOW

Task: Band of O=C1c2ccccc2C(=O)N1C1CC(c2ccoc2)=NO1 (stereo not drawn) ?
Result: LOW

Task: Band of COC(=O)C1(C)CC(c2ccoc2)=NO1 (stereo not drawn) ?
Result: HIGH

Task: Band of FC(F)(F)c1ccc(C2CC(c3ccoc3)=NO2)cc1 (stereo not drawn) ?
Result: MEDIUM

Task: Band of FC(F)(F)c1ccc(C2CC(c3cn(-c4cccc(C(F)(F)F)c4)c4ccccc34)=NO2)cc1 (stereo not drawn) ?
Result: LOW

Task: Band of OCCC1CC(c2cn(-c3cccc(C(F)(F)F)c3)c3ccccc23)=NO1 (stereo not drawn) ?
Result: LOW

Task: Band of FC(F)(F)c1cccc(-n2cc(C3=NOC(C4CCCCC4)C3)c3ccccc32)c1 (stereo not drawn) ?
Result: HIGH

Task: Band of COC(=O)C1(C)CC(c2cn(-c3cccc(C(F)(F)F)c3)c3ccccc23)=NO1 (stereo not drawn) ?
Result: MEDIUM

Task: Band of FC(F)(F)c1cccc(-n2cc(C3=NOC(CN4CCOCC4)C3)c3ccccc32)c1 (stereo not drawn) ?
Result: MEDIUM

Task: Band of c1ccc2c(c1)ccn2CC1CC(c2ccoc2)=NO1 (stereo not drawn) ?
Result: HIGH

Task: Band of COc1ccc(C2CC(c3cn(-c4cccc(C(F)(F)F)c4)c4ccccc34)=NO2)cc1 (stereo not drawn) ?
Result: HIGH

Task: Band of COc1ccc(C2CC(c3ccoc3)=NO2)cc1 (stereo not drawn) ?
Result: MEDIUM

Task: Band of CC(C)(C)C(=O)OC1CC(c2cn(-c3cccc(C(F)(F)F)c3)c3ccccc23)=NO1 (stereo not drawn) ?
Result: MEDIUM

Task: Band of Fc1ccc(C2CC(c3ccoc3)=NO2)cc1 (stereo not drawn) ?
Result: LOW

Task: Band of c1ccc(C2CC(c3ccoc3)=NO2)cc1 (stereo not drawn) ?
Result: MEDIUM

Task: Band of COC(=O)CC1(C(=O)OC)CC(c2ccoc2)=NO1 (stereo not drawn) ?
Result: HIGH

Task: Band of Fc1ccc(C2CC(c3cn(-c4cccc(C(F)(F)F)c4)c4ccccc34)=NO2)cc1 (stereo not drawn) ?
Result: HIGH
